Assay target: Tyrosine-protein phosphatase non-receptor type 1 (Homo sapiens)
Sequence (P18031 whole entry): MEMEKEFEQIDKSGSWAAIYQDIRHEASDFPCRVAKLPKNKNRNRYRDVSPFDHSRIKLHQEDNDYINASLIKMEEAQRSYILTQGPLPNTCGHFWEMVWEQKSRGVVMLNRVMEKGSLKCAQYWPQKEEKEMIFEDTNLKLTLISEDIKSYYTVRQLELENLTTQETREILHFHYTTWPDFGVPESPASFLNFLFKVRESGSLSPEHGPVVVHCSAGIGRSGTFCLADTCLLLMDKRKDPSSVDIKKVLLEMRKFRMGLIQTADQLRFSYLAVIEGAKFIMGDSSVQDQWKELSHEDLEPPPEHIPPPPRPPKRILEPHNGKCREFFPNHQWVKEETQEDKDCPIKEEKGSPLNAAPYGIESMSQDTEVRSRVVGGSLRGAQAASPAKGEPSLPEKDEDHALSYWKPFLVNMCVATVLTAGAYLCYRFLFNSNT
Method notes: Competitive inhibition of human GST-tagged PTP1B catalytic domain assessed as rate of DiFMUP hydrolysis by lineweaver-burk plot analysis
Measure name: pKi
Recall that pKi is obtained by taking minus log10 of the concentration measured in molar.

Task item: Look up and report pKi, with Tyrosine-protein phosphatase non-receptor type 1 (Homo sapiens) as system, for "CN(CC(=O)N(Cc1ccc(C2CCCCC2)cc1)c1ccc(C(=O)O)c(O)c1)S(=O)(=O)c1cccc2ccccc12"
Reply: 5.68
